test system: HIV-1 (IIIB strain); format: cell-based; conditions: anti-HIV-1 activity, acutely infected MT-4 cells, MTT
I'd appreciate it if you could supply EC50 values for the items below.
Give bare numbers, in µM.

Some compounds with known EC50 results, for comparison:
O=c1cc(Cc2c(F)cccc2F)nc(N2CCSCC2)[nH]1: 0.05
Cc1c(C(C)c2c(F)cccc2F)nc(SCC(C)C)[nH]c1=O (stereo not shown): 0.01
CC(C)Nc1nc(C(C)c2c(F)cccc2F)cc(=O)[nH]1 (stereo not shown): 0.03
CNc1nc(C(C)c2c(F)cccc2F)cc(=O)[nH]1 (stereo not shown): 0.11
O=c1cc(Cc2c(F)cccc2F)nc(N2CCOCC2)[nH]1: 0.6

List EC50 for every entry below, keeping the order given.
1. CCC(C)Nc1nc(C(C)c2c(F)cccc2F)cc(=O)[nH]1 (stereo not shown)
2. Cc1c(Cc2c(F)cccc2F)nc(N2CCOCC2)[nH]c1=O
3. CNc1nc(C(C)c2c(F)cccc2F)c(C)c(=O)[nH]1 (stereo not shown)
4. CC(c1cc(=O)[nH]c(NC2CCCCC2)n1)c1c(F)cccc1F (stereo not shown)
5. CCCNc1nc(C(C)c2c(F)cccc2F)cc(=O)[nH]1 (stereo not shown)

[0.04, 0.047, 0.03, 0.02, 0.02]
